System: Escherichia coli
assay-explanation: Antimicrobial activity against mreB-deficient Escherichia coli YLS-3 harboring beta-lactamase AmpC by liquid microdilution method
Just a reminder that ties go to 0 (no): only MIC strictly below 0.1 µg/mL counts as 1 (yes).

Is the reported MIC for CC(C)(O/N=C(\C(=O)N[C@@H]1C(=O)N2C(C(=O)[O-])=C(C[n+]3ccccc3)CS[C@H]12)c1csc(N)n1)C(=O)O strictly below 0.1 µg/mL? 1 (yes)

Is the reported MIC for CO/N=C(\C(=O)N[C@@H]1C(=O)N2C(C(=O)O)=C(COC(C)=O)CS[C@H]12)c1csc(N)n1 strictly below 0.1 µg/mL? 0 (no)

Is the reported MIC for CC(=O)OCC1=C(C(=O)O)N2C(=O)[C@@H](NC(=O)Cc3cccs3)[C@H]2SC1 strictly below 0.1 µg/mL? 0 (no)

Is the reported MIC for CC1(C)S[C@@H]2[C@H](NC(=O)[C@H](N)c3ccc(O)cc3)C(=O)N2[C@H]1C(=O)O strictly below 0.1 µg/mL? 0 (no)

Is the reported MIC for CCN1CCN(C(=O)N[C@@H](C(=O)N[C@@H]2C(=O)N3[C@@H]2SC(C)(C)[C@@H]3C(=O)O)c2ccccc2)C(=O)C1=O strictly below 0.1 µg/mL? 0 (no)

----------
System: Escherichia coli
assay-explanation: Antimicrobial activity against mreB-deficient Escherichia coli YLS-3 harboring beta-lactamase CTX-M-14 by liquid microdilution method
Type: functional
Would you mind telling me the reported MIC of each entry?
Number only, in µg/mL; omit the unit.

What value of MIC has been reported for the following compound? CC1(C)S[C@@H]2[C@H](NC(=O)[C@H](N)c3ccc(O)cc3)C(=O)N2[C@H]1C(=O)O 1020

What value of MIC has been reported for the following compound? CC(=O)OCC1=C(C(=O)O)N2C(=O)[C@@H](NC(=O)Cc3cccs3)[C@H]2SC1 128

What value of MIC has been reported for the following compound? CCN1CCN(C(=O)N[C@@H](C(=O)N[C@@H]2C(=O)N3[C@@H]2SC(C)(C)[C@@H]3C(=O)O)c2ccccc2)C(=O)C1=O 128

What value of MIC has been reported for the following compound? CC(C)(O/N=C(\C(=O)N[C@@H]1C(=O)N2C(C(=O)[O-])=C(C[n+]3ccccc3)CS[C@H]12)c1csc(N)n1)C(=O)O 0.5

What value of MIC has been reported for the following compound? CO/N=C(\C(=O)N[C@@H]1C(=O)N2C(C(=O)O)=C(COC(C)=O)CS[C@H]12)c1csc(N)n1 4

----------
Would you mind telling me the reported MIC of each entry?
System: Escherichia coli
assay-explanation: Antimicrobial activity against mreB-deficient Escherichia coli YLS-3 harboring empty plasmid by liquid microdilution method
Assay type: functional

What value of MIC has been reported for the following compound? CC(=O)OCC1=C(C(=O)O)N2C(=O)[C@@H](NC(=O)Cc3cccs3)[C@H]2SC1 [CEPHALOTHIN] ≤ 2 mg/L

What value of MIC has been reported for the following compound? CC1(C)S[C@@H]2[C@H](NC(=O)[C@H](N)c3ccc(O)cc3)C(=O)N2[C@H]1C(=O)O [AMOXICILLIN] 4 mg/L

What value of MIC has been reported for the following compound? CCN1CCN(C(=O)N[C@@H](C(=O)N[C@@H]2C(=O)N3[C@@H]2SC(C)(C)[C@@H]3C(=O)O)c2ccccc2)C(=O)C1=O [PIPERACILLIN] ≤ 2 mg/L

What value of MIC has been reported for the following compound? CC(C)(O/N=C(\C(=O)N[C@@H]1C(=O)N2C(C(=O)[O-])=C(C[n+]3ccccc3)CS[C@H]12)c1csc(N)n1)C(=O)O [CEFTAZIDIME] ≤ 0.06 mg/L
